Details: 293.15 K; 101.33 kPa; Liquid; Vibrating tube method
reported.property: mass density (kg/m3)
Answers are plain numbers, in kg/m3.

List reported mass density for each of these molecules:
1. CCO
2. CO
3. CCCC[n+]1ccc(C)cc1.F[B-](F)(F)F [1-butyl-4-methylpyridinium tetrafluoroborate]
4. CCCC[n+]1ccccc1.F[B-](F)(F)F [1-butylpyridinium tetrafluoroborate]

789.48
791.24
1185.92
1217.11

Given CCCC[n+]1cccc(C)c1.F[B-](F)(F)F [1-butyl-3-methylpyridinium tetrafluoroborate] , state its recorded mass density.
1185.66

----------
Details: 303.15 K; 101.33 kPa; Liquid; Vibrating tube method
Exercise: state measured mass density for each of the molecules provided.
One number for each entry, in kg/m3.

CCCC[n+]1ccc(C)cc1.F[B-](F)(F)F [1-butyl-4-methylpyridinium tetrafluoroborate] : 1179.12
CO [methanol] : 781.81

List reported mass density for each of these molecules:
1. CCCC[n+]1ccccc1.F[B-](F)(F)F [1-butylpyridinium tetrafluoroborate]
2. CCO [ethanol]
3. CCCC[n+]1cccc(C)c1.F[B-](F)(F)F [1-butyl-3-methylpyridinium tetrafluoroborate]

1. 1210.83
2. 781.3
3. 1178.86

----------
Settings: 323.15 K; 101.33 kPa; Liquid; Vibrating tube method
Lab note - cut at 1000 kg/m3 for mass density: 1 if strictly below, 0 if not.

For CCCC[n+]1ccc(C)cc1.F[B-](F)(F)F [1-butyl-4-methylpyridinium tetrafluoroborate] , is the recorded mass density below the cut-off of 1000 kg/m3?
0

Now give it for CCO too.
1

Now give it for CCCC[n+]1ccccc1.F[B-](F)(F)F [1-butylpyridinium tetrafluoroborate] too.
0

Now give it for CO too.
1

Now give it for CCCC[n+]1cccc(C)c1.F[B-](F)(F)F [1-butyl-3-methylpyridinium tetrafluoroborate] too.
0

----------
Details: 323.15 K; 101.33 kPa; Liquid; Capillary tube (Ostwald / Ubbelohde) method
Exercise: state measured viscosity for each of the molecules provided.
Give bare numbers, in mPa·s.

Below, each entry is followed by its recorded viscosity result.
CCO : 0.6939
CCCC[n+]1ccc(C)cc1.F[B-](F)(F)F [1-butyl-4-methylpyridinium tetrafluoroborate] : 55.53
CCCC[n+]1ccccc1.F[B-](F)(F)F [1-butylpyridinium tetrafluoroborate] : 45.59
CO : 0.3873

From here, focus on the item given below.
Given CCCC[n+]1cccc(C)c1.F[B-](F)(F)F [1-butyl-3-methylpyridinium tetrafluoroborate] , state its recorded viscosity.
48.18

----------
Details: 303.15 K; 101.33 kPa; Liquid; Capillary tube (Ostwald / Ubbelohde) method
Lab note - cut at 1 mPa·s for viscosity: Y if strictly below, N if not.

CCCC[n+]1cccc(C)c1.F[B-](F)(F)F [1-butyl-3-methylpyridinium tetrafluoroborate] : N
CCCC[n+]1ccccc1.F[B-](F)(F)F [1-butylpyridinium tetrafluoroborate] : N
CO [methanol] : Y

Could you now look at the following molecule, please?
For CCCC[n+]1ccc(C)cc1.F[B-](F)(F)F [1-butyl-4-methylpyridinium tetrafluoroborate] , is the recorded viscosity below the cut-off of 1 mPa·s?
N

----------
Settings: 313.15 K; 101.33 kPa; Liquid; Capillary tube (Ostwald / Ubbelohde) method
Where viscosity equals or exceeds 80 mPa·s, the correct label is YES; where it does not, the label is NO.

Recorded results for 4 molecules are shown here.
CCCC[n+]1ccccc1.F[B-](F)(F)F [1-butylpyridinium tetrafluoroborate] : NO
CCO : NO
CCCC[n+]1cccc(C)c1.F[B-](F)(F)F [1-butyl-3-methylpyridinium tetrafluoroborate] : NO
CCCC[n+]1ccc(C)cc1.F[B-](F)(F)F [1-butyl-4-methylpyridinium tetrafluoroborate] : YES

Could you now look at the following molecule, please?
Confirm if viscosity reported for the molecule CO is 80 mPa·s or above.
NO

----------
Exercise: state measured viscosity for each of the compounds provided.
Conditions: 293.15 K; 101.33 kPa; Liquid; Capillary tube (Ostwald / Ubbelohde) method
Answers are plain numbers, in mPa·s.

Below, each entry is followed by its recorded viscosity result.
CCCC[n+]1ccc(C)cc1.F[B-](F)(F)F [1-butyl-4-methylpyridinium tetrafluoroborate] : 284.62
CCO [ethanol] : 1.18
CCCC[n+]1cccc(C)c1.F[B-](F)(F)F [1-butyl-3-methylpyridinium tetrafluoroborate] : 246.62

List reported viscosity for each of these compounds:
1. CO [methanol]
2. CCCC[n+]1ccccc1.F[B-](F)(F)F [1-butylpyridinium tetrafluoroborate]

1. 0.5833
2. 220.54

----------
Conditions: 313.15 K; 101.33 kPa; Liquid; Vibrating tube method
reported.property: mass density (kg/m3)
Give bare numbers, in kg/m3.

CCCC[n+]1ccc(C)cc1.F[B-](F)(F)F [1-butyl-4-methylpyridinium tetrafluoroborate] : 1172.12
CCCC[n+]1cccc(C)c1.F[B-](F)(F)F [1-butyl-3-methylpyridinium tetrafluoroborate] : 1172.11
CCO : 772.57
CCCC[n+]1ccccc1.F[B-](F)(F)F [1-butylpyridinium tetrafluoroborate] : 1203.72

From here, focus on the item given below.
Given CO , state its recorded mass density.
772.29
